# TARGET_OR_TEST_SYSTEM: Protein O-GlcNAcase (Homo sapiens, UniProt O60502)
# Sequence (O60502 whole entry): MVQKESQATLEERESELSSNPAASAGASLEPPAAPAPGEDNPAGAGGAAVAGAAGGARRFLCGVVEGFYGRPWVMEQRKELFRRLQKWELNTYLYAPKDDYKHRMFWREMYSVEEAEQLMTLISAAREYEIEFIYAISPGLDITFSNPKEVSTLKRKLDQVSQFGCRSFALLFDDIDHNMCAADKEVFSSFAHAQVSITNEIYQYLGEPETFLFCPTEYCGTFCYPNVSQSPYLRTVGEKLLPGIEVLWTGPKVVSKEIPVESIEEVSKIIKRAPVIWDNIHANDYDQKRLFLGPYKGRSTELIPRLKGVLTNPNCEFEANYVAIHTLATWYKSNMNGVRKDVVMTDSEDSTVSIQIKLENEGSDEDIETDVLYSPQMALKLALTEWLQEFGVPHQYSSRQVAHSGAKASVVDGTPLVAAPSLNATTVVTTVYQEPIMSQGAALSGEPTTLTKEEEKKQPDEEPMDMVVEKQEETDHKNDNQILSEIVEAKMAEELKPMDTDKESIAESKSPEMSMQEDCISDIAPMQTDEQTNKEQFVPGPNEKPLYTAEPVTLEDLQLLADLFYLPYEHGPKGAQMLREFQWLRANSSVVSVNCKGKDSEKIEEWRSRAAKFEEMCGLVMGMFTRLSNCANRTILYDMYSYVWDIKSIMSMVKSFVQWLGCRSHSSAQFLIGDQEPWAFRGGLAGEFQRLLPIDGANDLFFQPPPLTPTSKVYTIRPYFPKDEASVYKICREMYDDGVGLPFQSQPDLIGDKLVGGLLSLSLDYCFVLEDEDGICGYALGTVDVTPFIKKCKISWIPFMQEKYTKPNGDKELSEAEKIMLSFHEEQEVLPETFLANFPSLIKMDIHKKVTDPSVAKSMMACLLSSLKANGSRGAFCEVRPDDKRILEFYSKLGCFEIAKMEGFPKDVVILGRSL
pKi: −log10 of the molar value.

SUBSTANCE_SMILES	TARGET_OR_TEST_SYSTEM	pKi
CC(=O)N[C@H]1CN[C@H](CO)[C@@H](O)[C@@H]1O	Protein O-GlcNAcase (Homo sapiens, UniProt O60502)	4.63
